- Measurement target: Aminopeptidase N (Plasmodium falciparum FcB1/Columbia, UniProt O96935)
- Sequence (O96935 whole entry): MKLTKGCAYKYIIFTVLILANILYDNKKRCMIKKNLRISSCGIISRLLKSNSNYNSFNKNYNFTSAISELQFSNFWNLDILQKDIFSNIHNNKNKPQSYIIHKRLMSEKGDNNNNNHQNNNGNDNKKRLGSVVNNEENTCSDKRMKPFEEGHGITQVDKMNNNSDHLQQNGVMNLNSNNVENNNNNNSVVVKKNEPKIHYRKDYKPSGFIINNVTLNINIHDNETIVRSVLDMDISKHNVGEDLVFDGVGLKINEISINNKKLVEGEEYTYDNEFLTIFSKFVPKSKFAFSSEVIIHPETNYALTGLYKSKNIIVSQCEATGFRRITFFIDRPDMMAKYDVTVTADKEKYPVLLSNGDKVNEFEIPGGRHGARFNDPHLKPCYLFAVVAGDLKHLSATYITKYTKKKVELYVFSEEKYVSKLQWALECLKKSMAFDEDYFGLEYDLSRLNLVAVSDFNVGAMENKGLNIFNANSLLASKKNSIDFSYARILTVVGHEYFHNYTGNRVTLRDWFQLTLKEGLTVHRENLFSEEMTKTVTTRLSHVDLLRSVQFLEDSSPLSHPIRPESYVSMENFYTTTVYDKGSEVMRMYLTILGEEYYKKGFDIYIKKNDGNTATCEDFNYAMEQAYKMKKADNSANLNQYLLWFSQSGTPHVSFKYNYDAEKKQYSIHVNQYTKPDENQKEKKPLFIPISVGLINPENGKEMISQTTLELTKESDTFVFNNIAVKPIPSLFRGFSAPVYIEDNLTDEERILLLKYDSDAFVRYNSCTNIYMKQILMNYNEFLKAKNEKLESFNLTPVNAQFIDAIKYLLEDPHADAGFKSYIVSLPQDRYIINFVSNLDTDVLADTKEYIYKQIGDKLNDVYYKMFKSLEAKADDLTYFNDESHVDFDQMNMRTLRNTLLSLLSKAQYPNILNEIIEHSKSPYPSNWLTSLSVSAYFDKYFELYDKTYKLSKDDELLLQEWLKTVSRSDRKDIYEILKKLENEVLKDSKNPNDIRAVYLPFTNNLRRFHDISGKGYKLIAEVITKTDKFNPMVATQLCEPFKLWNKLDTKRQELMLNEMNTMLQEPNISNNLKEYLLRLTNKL
- Method summary: malaria alanyl aminopeptidase activity blockers – biochemical, fluorogenic H-Leu-NHMec substrate, 1536-well (AID 1445)
- Set-up: species or system Plasmodium falciparum 3D7, 3D7
Active and inactive are the calls of the source.

# Chemical smiles, IC50
measured = [
    ("COc1cc(/C=C2\\SC(=O)N(c3ccccc3Cl)C2=O)cc([N+](=O)[O-])c1O", "65.8 µM (active)"),
    ("COc1cc(/C=N/NC(=O)c2cccnc2)ccc1OCC(=O)Nc1ccc(C)cc1", "47.8 µM (active)"),
    ("NCCNC(=O)Cc1cccc(NC(=O)Cc2ccc(Nc3ncnc4c3ncn4[C@@H]3O[C@H](CO)[C@@H](O)[C@H]3O)cc2)c1", "53.7 µM (active)"),
    ("CCNS(=O)(=O)c1ccc(CCC(=O)NCc2ccc(C)cc2)cc1", "21.8 µM (active)"),
]

* * *

- Measurement target: Corticotropin-releasing factor receptor 2/Corticotropin-releasing factor-binding protein (Homo sapiens, UniProt P24387+Q13324)
- Sequence (Q13324 whole entry): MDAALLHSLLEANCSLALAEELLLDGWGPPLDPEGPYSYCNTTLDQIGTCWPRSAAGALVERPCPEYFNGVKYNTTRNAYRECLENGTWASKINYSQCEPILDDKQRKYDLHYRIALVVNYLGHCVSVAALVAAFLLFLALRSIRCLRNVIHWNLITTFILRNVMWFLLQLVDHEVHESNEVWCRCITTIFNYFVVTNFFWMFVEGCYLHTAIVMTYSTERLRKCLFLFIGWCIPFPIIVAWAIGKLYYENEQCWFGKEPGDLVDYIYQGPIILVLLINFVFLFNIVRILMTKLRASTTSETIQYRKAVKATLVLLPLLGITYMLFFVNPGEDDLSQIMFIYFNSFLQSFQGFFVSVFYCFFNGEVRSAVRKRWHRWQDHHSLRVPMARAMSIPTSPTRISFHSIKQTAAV
- Sequence (P24387 whole entry): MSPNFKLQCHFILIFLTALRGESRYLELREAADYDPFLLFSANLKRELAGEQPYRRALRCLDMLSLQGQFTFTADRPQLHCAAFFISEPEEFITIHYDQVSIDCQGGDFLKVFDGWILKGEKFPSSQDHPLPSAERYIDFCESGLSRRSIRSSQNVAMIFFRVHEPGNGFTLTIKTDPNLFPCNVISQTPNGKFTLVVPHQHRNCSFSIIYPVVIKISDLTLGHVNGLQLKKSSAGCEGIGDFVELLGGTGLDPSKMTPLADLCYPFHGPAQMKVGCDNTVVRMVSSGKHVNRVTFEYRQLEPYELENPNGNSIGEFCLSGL
- Method summary: Dose Response confirmation of uHTS hits for small molecule antagonists of the CRF-binding protein and CRF-R2 receptor complex.
- Assay type: functional
- Experimental parameters: read-out: IC50_Mean
The source made the active and inactive calls.
Outcome codes: T = active, F = inactive

# Molecule, Discrete label
records = [
    ("NNC(=S)NC1CCS(=O)(=O)C1 (stereo unspecified)", "F"),
    ("COc1ccccc1C1C2=C(N=c3s/c(=C/c4cccc(OCC(=O)O)c4)c(=O)n31)c1ccccc1CC2 (stereo unspecified)", "F"),
    ("CCOC(=O)C(NC(=O)CC(C)C)(Nc1sc(C)c(CC)c1C#N)C(F)(F)F (stereo unspecified)", "T"),
    ("COc1cc(CNc2ccccc2SC)ccc1O", "F"),
    ("COc1cccc(C2CCCN2Cc2nc(-c3cnccn3)no2)c1 (stereo unspecified)", "F"),
    ("COc1ccc(-c2nnc(Nc3ccc(S(=O)(=O)Nc4nccs4)cc3)c3ccccc23)cc1", "F"),
]

Reference source for all entries: ChEMBL document CHEMBL1201862
